assay-system: UniProt:P33261
Sequence (P33261 whole entry): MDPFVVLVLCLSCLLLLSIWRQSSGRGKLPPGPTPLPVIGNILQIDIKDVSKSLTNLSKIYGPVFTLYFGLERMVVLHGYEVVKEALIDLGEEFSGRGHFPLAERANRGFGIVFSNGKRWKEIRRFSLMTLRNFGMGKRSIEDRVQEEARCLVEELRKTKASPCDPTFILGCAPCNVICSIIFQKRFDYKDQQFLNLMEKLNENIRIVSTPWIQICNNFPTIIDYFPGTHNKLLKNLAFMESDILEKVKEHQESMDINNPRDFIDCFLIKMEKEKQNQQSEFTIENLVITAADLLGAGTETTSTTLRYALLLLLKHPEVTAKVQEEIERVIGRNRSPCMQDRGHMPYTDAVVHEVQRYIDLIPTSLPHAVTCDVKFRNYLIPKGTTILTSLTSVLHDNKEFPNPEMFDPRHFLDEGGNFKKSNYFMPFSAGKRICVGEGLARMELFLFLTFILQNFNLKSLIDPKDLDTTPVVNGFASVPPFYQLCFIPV
assay: Inhibition of CYP2C19 in human liver microsomes assessed as enzyme-mediated metabolite formation at 30 uM using (S)-mephenytoin as substrate incubated for 5 mins followed by NADPH addition measured after 30 mins by LC-MS/MS analysis relative to control
Format: ADME
Design: scale not given: the % may be the effect or the level left
assay-context: probe (S)-mephenytoin, read-out: Activity
property: activity at 0.5 h, 30 µM (%)
Value expressed in %; do not type the unit.

Which measured activity at 0.5 h, 30 µM value corresponds to "CCCCCCCC(=O)CCc1ccc(O)c(OC)c1" ?
42

* * *

assay-system: Cytochrome P450 2A6 (Homo sapiens, UniProt P11509)
Sequence (P11509 whole entry): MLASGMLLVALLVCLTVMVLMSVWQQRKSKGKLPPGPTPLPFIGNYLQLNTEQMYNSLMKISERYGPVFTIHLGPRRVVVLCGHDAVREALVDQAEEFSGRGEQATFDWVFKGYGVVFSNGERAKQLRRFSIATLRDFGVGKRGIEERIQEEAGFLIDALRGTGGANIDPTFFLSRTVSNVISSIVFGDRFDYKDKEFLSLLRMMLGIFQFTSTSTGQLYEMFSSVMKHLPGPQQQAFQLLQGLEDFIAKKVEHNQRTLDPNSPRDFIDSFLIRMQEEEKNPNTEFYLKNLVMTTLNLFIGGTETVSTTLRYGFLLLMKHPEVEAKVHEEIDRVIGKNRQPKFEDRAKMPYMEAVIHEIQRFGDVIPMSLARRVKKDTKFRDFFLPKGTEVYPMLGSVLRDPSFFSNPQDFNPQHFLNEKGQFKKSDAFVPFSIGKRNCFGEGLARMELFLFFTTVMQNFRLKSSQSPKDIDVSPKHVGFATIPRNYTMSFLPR
assay: Inhibition of CYP2A6 in human liver microsomes using coumarin as substrate preincubated for 20 mins followed by substrate addition measured after 30 mins in presence of NADPH by LC-MS/MS analysis
Format: ADME
pIC50: −log10 of the molar value.
property: pIC50

Hello, I am looking for reported pIC50 with Cytochrome P450 2A6 (Homo sapiens, UniProt P11509) for "CCCCCCCC(=O)CCc1ccc(O)c(OC)c1" . Could you help?
< 4.52

* * *

assay-system: UniProt:P11509
assay: Inhibition of CYP2A6 in human liver microsomes assessed as enzyme-mediated metabolite formation at 10 uM using coumarin as substrate incubated for 5 mins followed by NADPH addition measured after 30 mins by LC-MS/MS analysis relative to control
Type: ADME
Parameters: scale not given: the % may be the effect or the level left
assay-context: probe coumarin, read-out: Activity
property: activity at 0.5 h, 10 µM (%)
Note: unit % is implicit; provide only the numeric part.

I'm curious: which activity at 0.5 h, 10 µM was measured for "CCCCCCCC(=O)CCc1ccc(O)c(OC)c1" tested on UniProt:P11509?
81.5

* * *

assay-system: Cytochrome P450 2C9 (Homo sapiens, UniProt P11712)
Sequence (P11712 whole entry): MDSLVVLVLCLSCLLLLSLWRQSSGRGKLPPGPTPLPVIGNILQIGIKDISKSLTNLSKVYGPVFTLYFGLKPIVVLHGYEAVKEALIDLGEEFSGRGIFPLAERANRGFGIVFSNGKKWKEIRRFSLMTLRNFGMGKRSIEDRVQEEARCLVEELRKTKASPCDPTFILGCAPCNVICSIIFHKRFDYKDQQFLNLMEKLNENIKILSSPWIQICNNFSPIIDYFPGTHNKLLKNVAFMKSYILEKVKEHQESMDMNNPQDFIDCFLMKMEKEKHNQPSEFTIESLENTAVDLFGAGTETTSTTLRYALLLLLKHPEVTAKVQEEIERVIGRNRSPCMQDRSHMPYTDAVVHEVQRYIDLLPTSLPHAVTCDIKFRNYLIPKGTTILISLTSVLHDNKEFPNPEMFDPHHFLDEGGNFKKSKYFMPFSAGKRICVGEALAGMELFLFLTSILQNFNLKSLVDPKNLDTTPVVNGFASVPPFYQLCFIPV
assay: Inhibition of CYP2C9 in human liver microsomes using diclofenac as substrate preincubated for 10 mins followed by NADPH addition measured after 7 mins
Type: ADME
Each entry below carries its recorded pIC50.
Please treat pIC50 as minus the base-10 logarithm of the molar concentration.

CCCCC/C=C/C(=O)CCc1ccc(O)c(OC)c1 : 5.48
CCCCCCC[C@H](O)CC(=O)CCc1ccc(O)c(OC)c1 : 5.06

Here is another compound to look at.
For "CCCCCCCCC[C@H](O)CC(=O)CCc1ccc(O)c(OC)c1" , what is its reported pIC50?
5.12

* * *

assay-system: UniProt:P05177
assay: Inhibition of CYP1A2 in human liver microsomes assessed as enzyme-mediated metabolite formation at 1 uM using phenacetin as substrate incubated for 5 mins followed by NADPH addition measured after 30 mins by LC-MS/MS analysis relative to control
Assay type: ADME
Set-up: scale not given: the % may be the effect or the level left
assay-context: probe phenacetin, read-out: Activity
property: activity at 0.5 h, 1 µM (%)
Answer format: numeric, % implied, no suffix.

Lookup: activity at 0.5 h, 1 µM / UniProt:P05177 / "CCCCCCCC(=O)CCc1ccc(O)c(OC)c1"
79.2

* * *

assay-system: CYP1A2 (Homo sapiens, UniProt P05177)
Sequence (P05177 whole entry): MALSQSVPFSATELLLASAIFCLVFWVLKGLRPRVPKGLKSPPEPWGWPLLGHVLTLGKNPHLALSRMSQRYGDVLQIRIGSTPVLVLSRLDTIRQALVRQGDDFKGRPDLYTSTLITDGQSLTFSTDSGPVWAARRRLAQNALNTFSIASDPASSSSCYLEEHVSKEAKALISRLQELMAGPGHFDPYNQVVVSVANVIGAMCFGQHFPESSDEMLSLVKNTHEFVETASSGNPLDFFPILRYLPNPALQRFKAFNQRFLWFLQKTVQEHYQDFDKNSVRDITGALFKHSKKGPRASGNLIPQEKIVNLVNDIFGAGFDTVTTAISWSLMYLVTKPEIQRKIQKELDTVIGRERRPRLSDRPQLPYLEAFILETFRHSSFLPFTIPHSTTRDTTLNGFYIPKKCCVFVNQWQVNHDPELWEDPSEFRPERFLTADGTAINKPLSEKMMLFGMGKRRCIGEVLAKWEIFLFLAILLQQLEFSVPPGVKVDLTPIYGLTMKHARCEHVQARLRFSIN
assay: Inhibition of CYP1A2 in human liver microsomes assessed as enzyme-mediated metabolite formation at 30 uM using phenacetin as substrate incubated for 5 mins followed by NADPH addition measured after 30 mins by LC-MS/MS analysis relative to control
Format: ADME
Design: scale not given: the % may be the effect or the level left
assay-context: probe phenacetin, read-out: Activity
property: activity at 0.5 h, 30 µM (%)
Provide only the numeric value, understood in %.

Entry under review: "CCCCCCCC(=O)CCc1ccc(O)c(OC)c1" . Reported activity at 0.5 h, 30 µM?
35.5
